# Tested on: MDA-MB-231 breast
# protocolNotes: NCI tumour cell line growth inhibition, 48 h; in the data active = GI50 below about 0.43 µM; inactive = the rest
Hello, when you answer, please use one of the following outcomes: class 1 for active, class 0 for inactive

Ask: Answer briefly: the call reported for CCOC(=O)Nc1ccc(-c2nc(-c3cccc(OCCN4CCOCC4)c3)c(-c3ccnc(Br)c3)[nH]2)cc1 in this assay.
Reply: class 0

Ask: Answer briefly: the call reported for CCSc1ncnc2c1ncn2C1OC(CO)C(O)C1O (stereo unspecified) in this assay.
Reply: class 0

Ask: Answer briefly: the call reported for O=C1OCC2=C1C(c1cccc(Br)c1)c1cc3c(cc1N2CCO)CCC3 (stereo unspecified) in this assay.
Reply: class 1

Ask: Answer briefly: the call reported for CCn1c2ccccc2c2cc(NC(=O)Nc3ccc([N+](=O)[O-])cc3C)ccc21 in this assay.
Reply: class 0

Ask: Answer briefly: the call reported for Cc1ncc(C(=O)Nc2ccc(CN3CCN(C)CC3)c(C(F)(F)F)c2)cc1C#Cc1cnc(N)c2ccncc12 in this assay.
Reply: class 0

Ask: Answer briefly: the call reported for O=C1C=CC(=O)c2cc3cc(CBr)ccc3cc21 in this assay.
Reply: class 0

---

Please provide measured TGI for the entries that follow.
# Tested on: SF-539 CNS
# protocolNotes: NCI tumour cell line growth inhibition, 48 h

Ask: Please give the measured TGI for this compound: Cn1cc(NC(=O)Nc2cc(C(=O)Nc3cc(C(=O)Nc4ccc(S(=O)(=O)O)c5cc(S(=O)(=O)O)ccc45)n(C)c3)n(C)c2)cc1C(=O)Nc1cc(C(=O)Nc2ccc(S(=O)(=O)O)c3cc(S(=O)(=O)O)ccc23)n(C)c1
Reply: > 100 µM

Ask: Please give the measured TGI for this compound: COc1ccc(-[n+]2nc(S(=O)(=O)O)c(/C=C/c3ccc(N(C)C)cc3)cc2C#N)cc1
Reply: > 100 µM

Ask: Please give the measured TGI for this compound: CN(C)CC1CCCC/C1=N/OC(=O)c1ccc(Cl)cc1 (stereo not given)
Reply: > 100 µM

Ask: Please give the measured TGI for this compound: Cc1ccc(NC(=O)CC2CC2)cc1-c1ccc(C(=O)NCC2CC2)cc1
Reply: > 25 µM

Ask: Please give the measured TGI for this compound: O=c1[nH]nc(Cc2ccccc2)n1/N=C/c1ccccc1O
Reply: > 100 µM

---

# System: T-47D breast
# protocolNotes: NCI tumour cell line growth inhibition, 48 h
testReadout: TGI

Ask: Field: TGI (T-47D breast). Entry: Cn1c(=O)c2c(nc(Cc3ccccc3)n2CC(=O)O)n(C)c1=O
Reply: > 100 µM

Ask: Field: TGI (T-47D breast). Entry: COc1ccc(/C=C2/N=C(c3ccccc3)N(c3c(C)n(C)n(-c4ccccc4)c3=O)C2=O)cc1OC
Reply: > 100 µM

Ask: Field: TGI (T-47D breast). Entry: COc1ccc(-c2nn(-c3ccc(NC(=O)c4ccc(Cl)c(Cl)c4)cc3)cc2-c2ccncc2)cc1Cl
Reply: > 50 µM

Ask: Field: TGI (T-47D breast). Entry: COc1ccc2c(c1)C(=O)c1c-2c(N2CCN(C(=O)CNCCNCCO)CC2)nc2ccccc12
Reply: 6.55 µM

Ask: Field: TGI (T-47D breast). Entry: COc1cc2c3c(n(C)c(=O)c2cc1OC)-c1cc2c(cc1/C3=C\CN)OCO2
Reply: 0.639 µM

Ask: Field: TGI (T-47D breast). Entry: Cc1nn(-c2ccccc2)c2c1C(c1ccc(Cl)cc1)NC(=S)N2 (stereo not drawn)
Reply: > 100 µM

Ask: Field: TGI (T-47D breast). Entry: Cc1cc2oc(=N)c(C#N)c(C)c2cc1C
Reply: > 100 µM

Ask: Field: TGI (T-47D breast). Entry: O=c1cnn(C/C=C/CO)c(=O)[nH]1
Reply: > 100 µM

Origin of the recorded values: PubChem BioAssay (NCI)
